Assay: Selectivity index of compound towards human malignant cell lines
Type: functional
The compounds listed here are annotated with their SI.

Observe how each entry below is paired with its result.
>>> df
                                   compound  property_name  recorded_measurement
0  COc1cc(/C=C2/C(=O)/C(=C/c3ccc([N+](=O)[O-])cc3)c3ccccc32)cc(OC)c1OC             SI                  ~0.6
1  COc1cc(/C=C2\CCC/C(=C\c3ccc([N+](=O)[O-])cc3)C2=O)ccc1O             SI                  > 44
2  COc1ccc(/C=C2\CCC/C(=C\c3ccc([N+](=O)[O-])cc3)C2=O)cc1             SI                    ~1
3  O=C1/C(=C/c2ccc([N+](=O)[O-])cc2)CCC/C1=C\c1ccc2c(c1)OCO2             SI                  ~1.2
4  COc1cc(/C=C2\Cc3ccccc3/C(=C\c3ccc([N+](=O)[O-])cc3)C2=O)cc(OC)c1OC             SI                 > 229

Ask: Recorded SI for COc1ccc(/C=C2\CC/C(=C\c3ccc([N+](=O)[O-])cc3)C2=O)cc1 , please?
Reply: ~1.3

Ask: Recorded SI for O=C1/C(=C/c2ccc(O)cc2)Cc2ccccc2/C1=C\c1ccc([N+](=O)[O-])cc1 , please?
Reply: 12

Ask: Recorded SI for COc1cc(/C=C2\CCC/C(=C\c3ccc([N+](=O)[O-])cc3)C2=O)cc(OC)c1OC , please?
Reply: 95

Ask: Recorded SI for O=C1/C(=C/c2ccc3c(c2)OCO3)Cc2ccccc2/C1=C\c1ccc([N+](=O)[O-])cc1 , please?
Reply: > 92

Ask: Recorded SI for COc1cc(/C=C2\CC/C(=C\c3ccc([N+](=O)[O-])cc3)C2=O)cc(OC)c1OC , please?
Reply: ~1

Recorded values, source ChEMBL document CHEMBL1141909.
